Test: MTT Assay for Cellular Cytotoxicity
Format: cell-based, human
Details: human, H9 cells, five days incubation, unit inferred, read-out: Cytotoxity Assay (EC50)
parameterMeasured: CC50 at 120 h
The reply should consist of the numeric value with the unit placed after it.

• CC(=O)N1c2cc(C)c(C)cc2N(C)C(=O)c2cccnc21 [Example 19] = 85 µM

Consider the record given below.
Ask: Data request, read-out CC50 at 120 h, for Cc1ccc2c(n1)N(C)c1cc(C)c(C)cc1N(C)C2=O [Example 15]
Result: 18 µM

* * *

Assay: MTT Assay for Cellular Cytotoxicity
Assay type: cell-based, human
Conditions: human, H9 cells, five days incubation, read-out: Cytotoxity Assay (EC50)
Consider the following compounds and their measured CC50 at 120 h readings.

- Cc1cc2c(cc1C)N(C)c1ncccc1C(=O)N2C [Example 9]: 4 µM
- CCN1c2ccccc2N(C)C(=O)c2cccnc21 [Example 2]: 80 µM
- CC(C)N1c2ccccc2N(C)C(=O)c2cccnc21 [Example 5]: 50 µM
- CN1C(=O)c2cccnc2N(C)c2cc(C(F)(F)F)ccc21 [Example 4]: 49 µM

Ask: For CN1C(=O)c2cccnc2N(C)c2ccc(Cl)cc21 [Example 8] , what is its reported CC50 at 120 h?
Result: 37 µM

* * *

Each entry below lists one item and its recorded inhibition at 10 µg/mL value.
Molecular target: HIV-1 RT (Human immunodeficiency virus type 1 group M subtype B, UniProt P03367)
Construct: Reverse transcriptase enzyme from the LAV strain of Human Immunodeficiency Virus (HIV-1) (1) was isolated from the bacterial strain JM109; made in house; host or cells: E. coli JM109, clone pBRTprt1+ in vector pIBI21, lac promoter, IPTG induction
Assay: Reverse Transcriptase (RT) Assay: inhibition of RNA-dependent DNA polymerase activity
Format: biochemical
Conditions: 10µg/ml; Table I, compounds of formula I; read-out: RT Inhibition % @ 10µg/ml
Please format your answer as a value with the unit trailing.

# example entries with known answers
• CCN1c2ccc(C(=O)OC)cc2N(C)C(=O)c2cccnc21 = 94%
• CSCN1C(=O)c2cccnc2N(CSC)c2cc(Cl)ccc21 = 69%
• CCOC(=O)CN1c2ccccc2N(C)C(=O)c2cccnc21 = 64%
• Cc1cc(C)c2c(n1)N(C)c1cc(C)c(C)cc1N(C)C2=O = 44%

Ask: May I ask what inhibition at 10 µg/mL has been recorded for `Cc1cc2c(cc1C)N(C)c1ncccc1C(=O)N2C` ?
Result: 92%

* * *

Overview of recorded inhibition at 10 µg/mL for various molecules
Target: HIV-1 RT (Human immunodeficiency virus type 1 group M subtype B, UniProt P03367)
Construct: Reverse transcriptase enzyme from the LAV strain of Human Immunodeficiency Virus (HIV-1) (1) was isolated from the bacterial strain JM109; made in house; host or cells: E. coli JM109, clone pBRTprt1+ in vector pIBI21, lac promoter, IPTG induction
Test: Reverse Transcriptase (RT) Assay: inhibition of RNA-dependent DNA polymerase activity
Format: biochemical
Conditions: 10µg/ml; Table I, compounds of formula I; read-out: RT Inhibition % @ 10µg/ml
Write your answer as a measured quantity: the number, then the unit.

- Cc1cccc2c1NC(=O)c1cccnc1N2: 51%
- CN1C(=O)c2cccnc2N(CC(=O)OC(C)(C)C)c2ccccc21: 81%

Ask: Bench note: what inhibition at 10 µg/mL did `CC(C)N1c2ccccc2N(C)C(=O)c2cccnc21` show?
Result: 94%
